target: Nonstructural protein 3 (Zika virus, UniProt A0A024AXB9); experiment: Functional biochemical assay to identify treatments for viral infectious disease that targets Zika NS2B-NS3 protease. Utilizing a direct enzyme activity measurement method, reading the fluorescence intensity is used to characterize the relative potency of inhibitors as IC50.; set-up: species or system PRVABC59
Sequence (A0A024AXB9 whole entry): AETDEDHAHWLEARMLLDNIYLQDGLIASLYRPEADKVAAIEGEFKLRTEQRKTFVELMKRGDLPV
So I've got a bunch of compounds here, and I need their pIC50 values.
One number for each entry, as −log10 of the molar value.

Would you please look over these solved cases?
SMILES DATA: CCc1cc(Cl)cc(C(=O)Nc2ccc3c(c2)CNC3)c1
pIC50: 6.34
--
SMILES DATA: C=CC[C@H](Nc1cccc(-c2nn[nH]n2)c1)c1cc(Cl)cc(NC(=O)OCc2ccccc2)c1
pIC50: 5.03

Batch lookup, pIC50 per entry.
1. N=C(N)NCCc1ccc(NC(=O)C(=O)/C=C/c2ccc(N)cc2)cc1
2. O=C(Nc1ccc2c(c1)CNC2)c1cc(Cl)cc2[nH]c(-c3nc4c(s3)CCC4)nc12

1: 4.44; 2: 6.37

Taken from ChEMBL document CHEMBL5604062.
